Hello, the source for this data is ChEMBL document CHEMBL1240504, in case you need it.

The compounds listed here are annotated with their zone of inhibition.
- Test system: Escherichia coli
- assayText: Antibacterial activity against Escherichia coli MTCC 41 at 128 mg/ml after 16 hrs by disk diffusion test
- Type: functional
- Design: dose or concentration left out as unconfirmed
- experimentalConditions: MTCC 41, 16 h, read-out: IZ

>  <smilesRepresentation>
CSc1nc2sc3c(c2c(=S)[nH]1)CCCC3

>  <zone of inhibition>
> 3 mm

$$$$
>  <smilesRepresentation>
CCOC(=O)c1nn(-c2ccc(C)cc2)c2nc3sc4c(c3c(=S)n12)CCCC4

>  <zone of inhibition>
> 3 mm

$$$$
>  <smilesRepresentation>
CC1(C)S[C@@H]2[C@H](NC(=O)[C@H](N)c3ccccc3)C(=O)N2[C@H]1C(=O)O

>  <zone of inhibition>
> 5 mm

$$$$

Here is another compound to look at.
Query string: Entry CC(=O)OC[C@H]1O[C@@H](Sc2nc3sc4c(c3c(=S)[nH]2)CCCC4)[C@@H](OC(C)=O)[C@@H]1OC(C)=O : reported zone of inhibition = ?
Result string: > 3 mm
